Tested on: E. coli strain 8154
procedure.details: Antibiogram by diffusion technique (CA-SFM 2008); further: key: sensitive (S): strains for which the MIC of the antibiotic tested is less than or equal to the lower critical concentration c; resistant (R): strains for which the MIC of the antibiotic tested are greater than the upper critical concentration C; intermediate sensitivity (I): strains for which the MIC of the antibiotic tested and the corresponding diameter are between the two critical concentrations and the two critical diameters
Assay type: cell-based
quantity.kind: Cat.

Check out these entries, answers already filled in.
NC[C@H]1O[C@H](O[C@H]2[C@H](O)[C@@H](O[C@H]3O[C@H](CO)[C@@H](O)[C@H](N)[C@H]3O)[C@H](N)C[C@@H]2N)[C@H](O)[C@@H](O)[C@@H]1O: S
CC1(C)S[C@@H]2[C@H](NC(=O)[C@H](N)c3ccc(O)cc3)C(=O)N2[C@H]1C(=O)O: R
C[C@@H](O)[C@H]1C(=O)N2C(C(=O)O)=C(SCCN=CN)C[C@H]12: S
C[C@H]1COc2c(N3CCN(C)CC3)c(F)cc3c(=O)c(C(=O)O)cn1c23: S
CC1(C)S[C@@H]2[C@H](NC(=O)[C@H](C(=O)O)c3ccsc3)C(=O)N2[C@H]1C(=O)O: R

API: value(readout=Cat., system=E. coli strain 8154) for record CO/N=C(\C(=O)N[C@@H]1C(=O)N2C(C(=O)[O-])=C(C[N+]3(C)CCCC3)CS[C@H]12)c1csc(N)n1 [Cefepime]
S

API: value(readout=Cat., system=E. coli strain 8154) for record NC[C@H]1O[C@H](O[C@H]2[C@H](O)[C@@H](O[C@H]3O[C@H](CO)[C@@H](O)[C@H](N)[C@H]3O)[C@H](N)C[C@@H]2N)[C@H](N)C[C@@H]1O
S

----------
System: Enterococcus strain 8152
procedure.details: Antibiogram by diffusion technique (CA-SFM 2008)
Type: cell-based
Set-up: unit not given here
Values of Diameter greater than or equal to 10 map to Met; values below map to Not met.

Hi team, for CCC[C@@H]1C[C@@H](C(=O)N[C@@H]([C@H]2O[C@H](SC)[C@H](O)[C@@H](O)[C@H]2O)[C@H](C)Cl)N(C)C1 , is the recorded Diameter at or above 10?
Not met

Hi team, for C[C@H]1COc2c(N3CCN(C)CC3)c(F)cc3c(=O)c(C(=O)O)cn1c23 , is the recorded Diameter at or above 10?
Met

Hi team, for CC1(C)S[C@@H]2[C@H](NC(=O)[C@H](N)c3ccc(O)cc3)C(=O)N2[C@H]1C(=O)O , is the recorded Diameter at or above 10?
Met

Hi team, for NC[C@H]1O[C@H](O[C@H]2[C@H](O)[C@@H](O[C@H]3O[C@H](CO)[C@@H](O)[C@H](N)[C@H]3O)[C@H](N)C[C@@H]2N)[C@H](N)C[C@@H]1O , is the recorded Diameter at or above 10?
Met

Hi team, for CO[C@@]1(NC(=O)Cc2cccs2)C(=O)N2C(C(=O)O)=C(COC(N)=O)CS[C@@H]21 , is the recorded Diameter at or above 10?
Not met
